# Study System: HLA-A*24:03
# Protocol Text: IEDB peptide-MHC binding, purified MHC/competitive/fluorescence; filed as Kd, often an IC50 or EC50 that approximates it; bounds were set here for any values at or beyond the usual limits of such assays
# Condition Parameters: source organism: Yersinia pestis Antiqua
Test Readout: pKd
Notebook: values listed as pKd are -log10 of the concentration (mol/L).

Prompt line: Please give measured pKd of the following entry: `PFGQWDQTF`
Response line: 6.68

====

# Study System: HLA-B*53:01
# Protocol Text: IEDB peptide-MHC binding, purified MHC/competitive/fluorescence; filed as Kd, often an IC50 or EC50 that approximates it; bounds were set here for any values at or beyond the usual limits of such assays
# Condition Parameters: source organism: Entamoeba histolytica HM-1:IMSS
Test Readout: Kd

Prompt line: Please give measured Kd of the following entry: `EVIRATYPS`
Response line: ≥ 5 µM

====

# Study System: HLA-A*29:02
# Protocol Text: IEDB peptide-MHC binding, purified MHC/direct/fluorescence; filed as Kd, often an IC50 or EC50 that approximates it; bounds were set here for any values at or beyond the usual limits of such assays
# Condition Parameters: source organism: Zaire ebolavirus
Test Readout: Kd

[[record]]
residue_codes = "LSDAARLFL"
measured_result = "≥ 20 µM"

[[record]]
residue_codes = "EWAENCYNL"
measured_result = "≥ 20 µM"


Prompt line: Please give measured Kd of the following entry: `DEMVCKWLL`
Response line: ≥ 20 µM

====

# Study System: HLA-A*23:01
# Protocol Text: IEDB peptide-MHC binding, purified MHC/competitive/radioactivity; filed as Kd, often an IC50 or EC50 that approximates it; bounds were set here for any values at or beyond the usual limits of such assays
# Condition Parameters: source organism: Mammarenavirus whitewaterense
Test Readout: Kd

Prompt line: Please give measured Kd of the following entry: `LLQFIVFLL`
Response line: 18.8 µM

====

# Study System: HLA-B*44:03
# Protocol Text: IEDB peptide-MHC binding, purified MHC/competitive/radioactivity; filed as Kd, often an IC50 or EC50 that approximates it; bounds were set here for any values at or beyond the usual limits of such assays
# Condition Parameters: source organism: Mammarenavirus brazilense
Test Readout: pKd
Notebook: values listed as pKd are -log10 of the concentration (mol/L).

Prompt line: Please give measured pKd of the following entry: `AENGELTEI`
Response line: 6.50

====

# Study System: HLA-B*27:03
# Protocol Text: IEDB peptide-MHC binding, purified MHC/competitive/fluorescence; filed as Kd, often an IC50 or EC50 that approximates it; bounds were set here for any values at or beyond the usual limits of such assays
# Condition Parameters: source organism: Influenza A virus (A/red knot/Delaware/2561/1987(H10N5))
Test Readout: Kd

Prompt line: Please give measured Kd of the following entry: `VMTDGPANK`
Response line: ≥ 20 µM

====

# Study System: HLA-B*58:01
# Protocol Text: IEDB peptide-MHC binding, purified MHC/competitive/radioactivity; filed as Kd, often an IC50 or EC50 that approximates it; bounds were set here for any values at or beyond the usual limits of such assays
# Condition Parameters: source organism: Dengue virus 4 Philippines/H241/1956
pKd: −log10 of the molar value.
Assign YES to entries whose pKd meets or exceeds 6; assign NO to the rest.

[[record]]
residue_codes = "RTVFFVLMM"
study_system = "HLA-B*58:01"
assigned_class = "YES"

[[record]]
residue_codes = "PASAAQRRGR"
study_system = "HLA-B*58:01"
assigned_class = "NO"

[[record]]
residue_codes = "IGLSSRATW"
study_system = "HLA-B*58:01"
assigned_class = "YES"


Prompt line: Check this sequence for pKd at or above 6: `LASMAICSAV`
Response line: YES

Prompt line: Check this sequence for pKd at or above 6: `MVMTTTANW`
Response line: YES
